All values here come from ChEMBL document CHEMBL5303304.

# System: HEK-293T
# testSummary: Incucyte cell viability with HEK293T; further: unitless GR value; below 1 slowed growth and below 0 cell loss
# Format: toxicity, cell-based
# conditionSummary: human, 12 h, 10 µM, compound concentration 10 uM, replicate number 1
Response field label: string, one of Satisfied (Growth Rate strictly below 0.4) or Not satisfied.

The following compounds have reported results that may help.
{"compound": "CCC(C(=O)Nc1ccc(-c2cc3ccccc3s2)c(C(N)=O)c1)c1nccs1 (configuration not stated)", "groupLabel": "Not satisfied"}
{"compound": "COc1cc(F)ccc1-c1ncnc(Nc2cccc(C[S@](C)(=N)=O)c2)n1 [ATUVECICLIB]", "groupLabel": "Satisfied"}
{"compound": "CN1CCN([C@H]2CC[C@@H](n3cc(-c4ccc(Oc5ccccc5)cc4)c4c(N)ncnc43)CC2)CC1", "groupLabel": "Satisfied"}
{"compound": "c1cc(-c2cnn3cc(-c4ccc(N5CCNCC5)cc4)cnc23)c2cccnc2c1", "groupLabel": "Satisfied"}

Please look at the following compound next.
Determine whether this compound shows Growth Rate lower than 0.4 (ties excluded): Cc1cc(O)c(-c2ccc([C@@H](C)CN(C)C)cc2)c2c1[nH]c(=O)c1sccc12 Satisfied

###

# Test system: U2OS
# testSummary: Incucyte cell viability with U2OS; further: unitless GR value; below 1 slowed growth and below 0 cell loss
# Assay type: toxicity, cell-based
# conditionSummary: human, 18 h, 10 µM, compound concentration 10 uM, replicate number 2
parameter: Growth Rate
Respond using a number only.

Study these solved cases before continuing.
{"compound": "CC(C)N(C(=O)C1CCOCC1)c1cc(F)c(Oc2ncc(Cn3nccn3)cc2C(F)(F)F)cc1C(=O)O", "tgt": "U2OS", "Growth Rate": 0.98}
{"compound": "N[C@@H]1CCCC[C@H]1Oc1ccc2ncc(-c3cc4ccccc4o3)n2n1", "tgt": "U2OS", "Growth Rate": -0.72}
{"compound": "Cc1nc(Nc2cnn(C3CCNCC3)c2)nc2c1N(C)C(=O)c1cc3ccccc3cc1N2C", "tgt": "U2OS", "Growth Rate": 0.65}
{"compound": "CCNCCNC(=O)c1c(C)[nH]c(/C=C2\\C(=O)Nc3ccc(F)cc32)c1C", "tgt": "U2OS", "Growth Rate": 0.77}
{"compound": "Cc1nccn1-c1ccc(Sc2cccc(C3(C(N)=O)CCOCC3)c2)cc1", "tgt": "U2OS", "Growth Rate": 0.78}
{"compound": "Cc1sc(C(=O)c2cncnc2N[C@@H]2C[C@H](COS(N)(=O)=O)[C@@H](O)C2)cc1[C@@H]1NCCc2ccc(Cl)cc21", "tgt": "U2OS", "Growth Rate": 0.17}
{"compound": "CN1CCN(c2ccc(C(=O)Nc3n[nH]c4ccc(Cc5cc(F)cc(F)c5)cc34)c(NC3CCOCC3)c2)CC1 [ENTRECTINIB]", "tgt": "U2OS", "Growth Rate": -0.56}
{"compound": "Cn1cc(-n2cnc3c(NCc4nc5cc(Cl)c(Cl)cc5[nH]4)nc(N4CCOCC4)nc32)cn1", "tgt": "U2OS", "Growth Rate": -0.54}

Please look at this compound and report its Growth Rate: NC1=NC(=O)/C(=C2\CCNC(=O)c3[nH]c4ccccc4c32)N1 0.65

###

Catalogue of molecules with associated Growth Rate
# System: U2OS
# testSummary: Incucyte cell viability with U2OS; further: unitless GR value; below 1 slowed growth and below 0 cell loss
# Format: toxicity, cell-based
# conditionSummary: human, 6 h, 10 µM, compound concentration 10 uM, replicate number 2

Study these solved cases before continuing.
{"molecule": "O=C(O)c1ccc(CN2C[C@@H]3C[C@H]2CN3Cc2ccc(Oc3ccc(-c4ncco4)cc3)cc2)cc1 [ACEBILUSTAT]", "Growth Rate": -0.01}
{"molecule": "CC1CCN(c2ccnc(NCc3cn(C)cn3)n2)CC1 [TP-040]", "Growth Rate": 0.76}
{"molecule": "O=C(O)CCC/C=C\\C[C@@H]1[C@@H](/C=C/[C@@H](O)COc2cccc(C(F)(F)F)c2)[C@H](O)C[C@@H]1O [FLUPROSTENOL]", "Growth Rate": 0.95}
{"molecule": "Cc1onc(O)c1CC(N)C(=O)O [(R,S)-AMPA]", "Growth Rate": 0.78}
{"molecule": "Cl.NCC(O)c1ccc(O)cc1 (configuration not stated) [OCTOPAMINE HYDROCHLORIDE]", "Growth Rate": 0.65}
{"molecule": "COc1cc(N2CCN(C)CC2)ccc1Nc1ncc2c(n1)N(C)c1ccccc1C(=O)N2CC(F)(F)F", "Growth Rate": 0.9}

Please look at this molecule and report its Growth Rate: O=S(=O)(Nc1nncs1)c1cc(Cl)c(Oc2ccc(C(F)(F)F)cc2-c2ccnn2C2CNC2)cc1F 0.95

Please look at this molecule and report its Growth Rate: CC1(C)CCC(CN2CCN(c3ccc(C(=O)NS(=O)(=O)c4ccc(NCC5CCOCC5)c([N+](=O)[O-])c4)c(Oc4cnc5[nH]ccc5c4)c3)CC2)=C(c2ccc(Cl)cc2)C1 [VENETOCLAX] 0.98

Please look at this molecule and report its Growth Rate: CN1CCN(c2ccc(C(=O)Nc3n[nH]c4ccc(Cc5cc(F)cc(F)c5)cc34)c(NC3CCOCC3)c2)CC1 [ENTRECTINIB] -0.57

Please look at this molecule and report its Growth Rate: Cl.Clc1cc2cc(c1)-c1cnn3ccc(nc13)NCCOCCO2 0.72

Please look at this molecule and report its Growth Rate: O=c1ccc2c(OCCCCOc3ccccc3)c3ccoc3cc2o1 0.99

Please look at this molecule and report its Growth Rate: COc1cc2ncnc(Nc3cccc(O)c3)c2cc1OC 0.55

Please look at this molecule and report its Growth Rate: C[C@@H](Cn1c(=O)[nH]/c(=N\c2ccc(Oc3ccccn3)cc2)n(Cc2ccc(Cl)cc2)c1=O)C(=O)O 0.93

Please look at this molecule and report its Growth Rate: Cc1nnsc1C(=O)Nc1ccc(-n2nc(C(F)(F)F)cc2C(F)(F)F)cc1 -0.02

Please look at this molecule and report its Growth Rate: Cc1sc(C(=O)c2cncnc2N[C@@H]2C[C@H](COS(N)(=O)=O)[C@@H](O)C2)cc1[C@@H]1NCCc2ccc(Cl)cc21 -0.29

Please look at this molecule and report its Growth Rate: C[C@@]1(Cc2ccc(C#N)cc2)C(=O)N(c2cc(Cl)cc(Cl)c2)c2ncc(C(=O)NC3(c4nc(C5CCC5)no4)CC3)n21 [BI 9446] 1

Please look at this molecule and report its Growth Rate: Cc1ncc(C(=O)Nc2cc(C(C)(C)C)on2)cc1-n1cc(-c2cnn(C)c2C)nn1.Cl 0.94

###

# Test system: HEK-293T
# testSummary: Incucyte cell viability with HEK293T; further: unitless GR value; below 1 slowed growth and below 0 cell loss
# Type: toxicity, cell-based
# conditionSummary: human, 18 h, 10 µM, compound concentration 10 uM, replicate number 1
Cut-off 0.4 on Growth Rate, inclusive. At or above means Yes; below means No.

The following compounds have reported results that may help.
{"compound": "CS(=O)(=O)NC(=O)CCC/C=C\\C[C@H]1C(=O)C[C@@H](O)[C@@H]1/C=C/[C@@H](O)COc1ccccc1", "groupLabel": "Yes"}
{"compound": "CC[C@H](CO)Nc1nc(Nc2cccc(-c3ccccn3)c2)c2ncn(C(C)C)c2n1.Cl.O", "groupLabel": "No"}
{"compound": "NC(=O)OC[C@H](NC(=O)Cn1nc(-c2ccc(Cl)cc2)n(C[C@H](O)C(F)(F)F)c1=O)c1cccc(C(F)(F)F)c1", "groupLabel": "Yes"}
{"compound": "O=C(Cc1ccccc1[N+](=O)[O-])Nc1ccc(-c2ccc(C(O)(C(F)(F)F)C(F)(F)F)cc2F)cc1", "groupLabel": "Yes"}
{"compound": "C=CC(=O)Nc1cccc(C(=O)Nc2ccc(Nc3cc(-c4c(-c5ccc(F)cc5)nc(SC)n4C)ccn3)cc2)c1", "groupLabel": "Yes"}

Entry O=c1cccc2n1C[C@@H]1CNC[C@H]2C1 : is its Growth Rate no less than 0.4? Yes

Entry Cc1cc(Nc2ncc(Cl)c(Nc3ccccc3S(=O)(=O)C(C)C)n2)c(OC(C)C)cc1C1CCNCC1 : is its Growth Rate no less than 0.4? No

###

Catalogue of compounds with associated Growth Rate
# Test system: HEK-293T
# testSummary: Incucyte cell viability with HEK293T; further: unitless GR value; below 1 slowed growth and below 0 cell loss
# Type: toxicity, cell-based
# conditionSummary: human, 6 h, 10 µM, compound concentration 10 uM, replicate number 1
Respond using a number only.

Study these solved cases before continuing.
{"compound": "CCN(C)S(=O)(=O)Nc1cccc(-c2ccc3c(NC(=O)C4CC4)n[nH]c3c2)c1", "Growth Rate": -0.21}
{"compound": "Cn1cc(-c2cnc3ccc4ccc(CS(=O)(=O)NCc5ccccn5)cc4c(=O)c3c2)cn1 [MK-8033]", "Growth Rate": 0.24}
{"compound": "CNc1nc(Nc2ccc(C(=O)N3CCOCC3)cc2OC)nc2[nH]cc(Cl)c12", "Growth Rate": 0.03}
{"compound": "Cc1cccc(-c2[nH]c(CNc3ccccc3F)nc2-c2ccc3ncnn3c2)n1 [VACTOSERTIB]", "Growth Rate": 0.95}
{"compound": "CC(C)C(=O)N[C@@H]1CCN(C(=O)Nc2nc3c(s2)-c2nc(-c4ccccc4Cl)ncc2CC3)C1", "Growth Rate": 0.21}
{"compound": "Cc1cc2ncnn2cc1Nc1ncc2c(n1)n(C1CCOCC1)c(=O)n2C [AZD-7648]", "Growth Rate": 0.34}
{"compound": "Nc1n[nH]c2nc(-c3ccc(NS(=O)(=O)c4cccc(Cl)c4Cl)cc3)cnc12", "Growth Rate": 0.93}
{"compound": "CCC(=O)O[C@]1(C(=O)CCl)[C@@H](C)C[C@H]2[C@@H]3CCC4=CC(=O)C=C[C@]4(C)[C@@]3(F)[C@@H](O)C[C@@]21C [CLOBETASOL PROPIONATE]", "Growth Rate": 0.7}

Please look at this compound and report its Growth Rate: COc1cc(C(=O)NC2CCN(C)CC2)ccc1Nc1ncc2c(n1)N(C1CCCC1)CC(F)(F)C(=O)N2C 0.85

Please look at this compound and report its Growth Rate: CN[C@@H]1CC[C@@H](c2ccc(Cl)c(Cl)c2)c2ccccc21.Cl 0

Please look at this compound and report its Growth Rate: COc1ccc2c(O[C@@H]3C[C@H]4C(=O)N[C@]5(C(=O)NS(=O)(=O)C6(C)CC6)CC5/C=C\CCCCC[C@H](NC(=O)c5ccn(C)n5)C(=O)N4C3)cc(OC(C)C)nc2c1C (some centres not stated) 0.89

Please look at this compound and report its Growth Rate: C[C@]12CC[C@@H]3c4ccc(C(N)=O)cc4CC[C@H]3[C@@H]1CC=C2c1cncc(F)c1 0.93

Please look at this compound and report its Growth Rate: CN[C@@H](C)C(=O)N[C@H](C(=O)N1CCC[C@H]1c1nc(C(=O)c2ccc(F)cc2)cs1)C1CCCCC1 [LCL-161] 0.22

Please look at this compound and report its Growth Rate: CC(C)N1CCN(Cc2cnc(-c3cc(-c4cccc5[nH]ccc45)cc4[nH]ncc34)o2)CC1 [NEMIRALISIB] -0.37

Please look at this compound and report its Growth Rate: COCCNc1cc(NC(=O)N2CCCc3cc(CN4CCN(C)CC4=O)c(C=O)nc32)ncc1C#N [FGF401] 0.68

Please look at this compound and report its Growth Rate: CC1(C)Cc2nc(C3CCCC3)c([C@@H](F)c3ccc(C(F)(F)F)cc3)c(C3CCCCC3)c2[C@@H](O)C1 0.88

Please look at this compound and report its Growth Rate: Cc1c(N2CCNCC2)nc2ccc(Br)cc2c1C(=O)NC[C@H](CCC(=O)O)c1ccccc1Cl [BAY-403] 0.58

Please look at this compound and report its Growth Rate: Cc1cc(Cn2c(N3CC4(CNC4)C3)nc3c(N4CCN(C)CC4)cc(Cl)cc32)cc(C)c1F -0.99

Please look at this compound and report its Growth Rate: CC1(C)CCN(C(=O)C2CN(c3c4c(nc5ccnn35)CCNCC4)C2)C1.O=C(O)C(F)(F)F -0.5

Please look at this compound and report its Growth Rate: COc1c(-c2cn(C3CCC(=O)NC3=O)nn2)csc1C(=O)N1CCCC1 (configuration not stated) 0.29

Please look at this compound and report its Growth Rate: O=C(Nc1ccc(OC(F)(F)Cl)cc1)c1cnc(N2CC[C@@H](O)C2)c(-c2ccn[nH]2)c1 [ASCIMINIB] -0.71

Please look at this compound and report its Growth Rate: CN[C@@H](C)C(=O)N[C@H](C(=O)N1CCC[C@H]1C(=O)N[C@H]1c2ccccc2C[C@H]1OCC#CC#CCO[C@@H]1Cc2ccccc2[C@@H]1NC(=O)[C@@H]1CCCN1C(=O)[C@@H](NC(=O)[C@H](C)NC)C1CCCCC1)C1CCCCC1 0.13
